biological target: TRAF2 and NCK-interacting protein kinase (Homo sapiens) (UniProt Q9UKE5)
Sequence (Q9UKE5 whole entry, looked up): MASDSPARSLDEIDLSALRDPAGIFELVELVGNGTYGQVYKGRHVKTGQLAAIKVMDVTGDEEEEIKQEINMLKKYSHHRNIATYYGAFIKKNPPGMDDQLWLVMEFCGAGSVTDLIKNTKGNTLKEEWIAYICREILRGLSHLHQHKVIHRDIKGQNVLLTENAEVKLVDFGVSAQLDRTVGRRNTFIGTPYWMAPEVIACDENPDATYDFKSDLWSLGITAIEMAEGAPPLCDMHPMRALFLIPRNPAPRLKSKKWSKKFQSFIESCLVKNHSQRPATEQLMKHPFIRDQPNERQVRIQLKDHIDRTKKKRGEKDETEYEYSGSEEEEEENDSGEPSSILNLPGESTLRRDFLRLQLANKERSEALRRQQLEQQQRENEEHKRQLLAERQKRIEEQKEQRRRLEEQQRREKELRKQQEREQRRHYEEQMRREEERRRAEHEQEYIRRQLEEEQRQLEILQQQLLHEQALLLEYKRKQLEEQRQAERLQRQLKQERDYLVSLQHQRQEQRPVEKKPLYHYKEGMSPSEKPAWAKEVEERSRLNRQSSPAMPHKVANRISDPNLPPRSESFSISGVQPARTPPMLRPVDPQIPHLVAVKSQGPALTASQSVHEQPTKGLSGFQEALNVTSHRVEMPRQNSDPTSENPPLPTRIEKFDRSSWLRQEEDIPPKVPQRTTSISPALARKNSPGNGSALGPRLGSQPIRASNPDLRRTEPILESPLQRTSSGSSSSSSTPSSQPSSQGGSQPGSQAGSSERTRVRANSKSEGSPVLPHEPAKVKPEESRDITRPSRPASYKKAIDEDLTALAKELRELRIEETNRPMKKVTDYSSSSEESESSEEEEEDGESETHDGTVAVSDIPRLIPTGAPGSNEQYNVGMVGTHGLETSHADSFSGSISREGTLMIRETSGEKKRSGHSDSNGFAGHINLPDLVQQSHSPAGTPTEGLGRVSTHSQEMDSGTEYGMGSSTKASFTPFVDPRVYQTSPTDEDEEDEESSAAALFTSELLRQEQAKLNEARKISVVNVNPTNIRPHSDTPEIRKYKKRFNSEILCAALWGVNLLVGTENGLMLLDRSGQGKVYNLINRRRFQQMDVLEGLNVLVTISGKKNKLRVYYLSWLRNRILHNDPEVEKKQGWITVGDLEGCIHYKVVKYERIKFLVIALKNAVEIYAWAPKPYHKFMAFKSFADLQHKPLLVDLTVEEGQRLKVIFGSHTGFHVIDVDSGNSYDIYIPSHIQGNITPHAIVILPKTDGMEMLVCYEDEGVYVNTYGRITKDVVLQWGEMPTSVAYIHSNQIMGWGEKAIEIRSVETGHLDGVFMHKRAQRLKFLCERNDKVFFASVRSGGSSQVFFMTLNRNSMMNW
Label key: y means ΔTm under 0.4 °C; n means ΔTm of 0.4 °C or more.

MOLECULE | CLASS_ASSIGNMENT
O=S(=O)(NCCNC/C=C/c1ccc(Br)cc1)c1cccc2cnccc12 | y
COc1cc(OC)c(/C=C2\C(=O)Nc3ccccc32)c(OC)c1 | n
O=C1NC(=O)c2c1c1c3ccccc3n3c1c1c2c2ccccc2n1C1CCC3O1 | n
CC(C)c1cc(/C=C(\C#N)C(=O)NCCCc2ccccc2)cc(C(C)C)c1O | y
CN(C)c1ncnc2nc[nH]c12 [DIMETHYLADENINE] | y
CCOc1cc2ncnc(Nc3cccc(Br)c3)c2cc1OCC | n
O=c1cc(-c2ccc(O)cc2)oc2cc(O)cc(O)c12 | n
O=C(Nc1cccc(Nc2cc(Nc3cccc(C(F)(F)F)c3)ncn2)c1)C1CC1 | y
